Origin of the recorded values: the PETadex activity labels (doi:10.1073/pnas.2006753117)

Substrate: MHET
ASSAY: Proxy for plastic degradation [kcat] (s⁻¹)
CONDITION LABEL: pH 7.5
Measured Proxy for plastic degradation by item
QUANTITY KIND: Proxy for plastic degradation

* unnamed (protein) MQTTVTTMLLASVALAACAGGGSTPLPLPQQQPPQQEPPPPPVPLASRAACEALKDGNGDMVWPNAATVVEVAAWRDAAPATASAAALPEHCEVSGAIAKRTGIDGYPYEIKFRLRMPAEWNGRFFMEGGSGTNGSLSAATGSIGGGQIASALSRNFATIATDGGHDNAVNDNPDALGTVAFGLDPQARLDMGYNSYDQVTQAGKAAVARFYGRAADKSYFIGWSEGGREGMMLSQRFPSHYDGIVAGAPWDSSTNFDLAAFRDRGGKMILYHGMSDAAFSALDTADYYERLGAAMPGAAGFARLFLVPGMNHSSGGPGTDRFDMLTPLVAWVERGEAPDQISAWSGTPGYFGVAARTRPLCPYPQIARYKGSGDINTEANFACAAPP | 0.1
* unnamed (protein) MQTTVTTMLLASVALAACAGGGSTPLPLPQQQPPQQEPPPPPVPLASRAACEALKDGNGDMVWPNAATVVEVAAWRDAAPATASAAALPEHCEVSGAIAKRTGIDGYPYEIKFRLRMPAEWNGRFFMEGGSGTNGSLSAATGSIGGGQIASALSRNFATIATDGGHDNAVNDNPDALGTVAFGLDPQARLDMGYNSYDQVTQAGKAAVARFYGRAADKSYFIGCSEGGREGMMLSQRFPSHYDGIVAGAPWDSSTNFDLAAFRDRGGKMILYHGMSDAAFSALDTADYYERLGAAMPGAAGFARLFLVPGMNHCSGGPGTDRFDMLTPLVAWVERGEAPDQISAWSGTPGYFGVAARTRPLCPYPQIARYKGSGDINTEANFACAAPP | 0.05
* unnamed (protein) MNFPRASRLMQAAVLGGLMAVSAAATAQTNPYARGPNPTAASLEASAGPFTVRSFTVSRPSGYGAGTVYYPTNAGGTVGAIAIVPGYTARQSSIKWWGPRLASHGFVVITIDTNSTLDQPSSRSSQQMAALRQVASLNGTSSSPIYGKVDTARMGVMGCSMGGGGSLISAANNPSLKAAAPQAPWDSSTNFSSVTVPTLIFACENDSIAPVNSSALPIYDSMSRNAKQFLEINGGSHCCANSGNSNQALIGKKGVAWMKRFMDNDTRYSTFACENPNSTRVSDFRTANCS | 0.03
